Target: GlcNAc(b1-4)GlcNAc(b1-4)GlcNAc(b1-4)GlcNAc(b1-4)GlcNAc
Assay: glycan array binding signal (z-score within array); higher = stronger binding
Conditions: glycan notation: IUPAC condensed, linker removed
Only a selection was taken, and the strongest signals are over-represented in it overall.
Please use label 1 whenever glycan array binding signal (z-score) is not below -0.1, and label 0 whenever it is.

- Spy 2007 (Streptococcus pyogenes), Q99XV3 (protein) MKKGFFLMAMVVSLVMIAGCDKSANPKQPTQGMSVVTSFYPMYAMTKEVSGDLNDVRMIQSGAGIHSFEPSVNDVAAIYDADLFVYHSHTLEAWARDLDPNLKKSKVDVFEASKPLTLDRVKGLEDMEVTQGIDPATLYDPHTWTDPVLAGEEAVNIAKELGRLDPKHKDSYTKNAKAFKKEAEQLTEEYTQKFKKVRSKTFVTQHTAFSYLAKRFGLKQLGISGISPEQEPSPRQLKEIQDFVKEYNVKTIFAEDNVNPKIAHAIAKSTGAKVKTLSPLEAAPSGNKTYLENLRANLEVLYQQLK: label 1
- PGP3 (Chlamydia trachomatis), P0CE18 (protein) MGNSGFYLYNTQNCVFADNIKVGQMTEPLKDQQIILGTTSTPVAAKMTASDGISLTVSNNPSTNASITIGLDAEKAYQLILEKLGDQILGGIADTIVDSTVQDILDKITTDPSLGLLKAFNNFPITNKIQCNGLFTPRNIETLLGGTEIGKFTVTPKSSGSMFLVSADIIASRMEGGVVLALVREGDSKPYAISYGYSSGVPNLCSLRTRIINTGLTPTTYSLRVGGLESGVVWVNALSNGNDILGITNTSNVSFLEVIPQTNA: label 1
- CBM32-1 (Clostridium perfringens) (protein) MGSSHHHHHHSSGLVPRGSHMASGVEITEGVTVTAKGNTEGNTADLAIDGDLSTYWESSNDYKWIEVDLGGIYELSKIEIFNKDEAVYKYNIYASEDGENFNKIAYKNNDNVSDSNGNVHTIDNVRAGKIRIDVVQNSNSDRVNIAEINVFG: label 1
- GH95CBM (Clostridium perfringens) (protein) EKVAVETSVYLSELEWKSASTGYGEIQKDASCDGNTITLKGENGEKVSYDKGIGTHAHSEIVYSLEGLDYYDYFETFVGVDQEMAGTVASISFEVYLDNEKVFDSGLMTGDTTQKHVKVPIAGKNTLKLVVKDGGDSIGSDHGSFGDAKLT: label 0
- RBMC1 (Vibrio cholerae) (protein) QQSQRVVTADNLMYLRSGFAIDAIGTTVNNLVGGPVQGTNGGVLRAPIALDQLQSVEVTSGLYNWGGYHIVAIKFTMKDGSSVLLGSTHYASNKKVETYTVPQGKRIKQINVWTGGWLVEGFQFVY: label 0
